This collection of values is drawn from ChEMBL document CHEMBL3871280.

The entries below come with measured MIC values attached.
# System: Bacillus subtilis
# experiment.notes: Antibacterial activity against Bacillus subtilis 168
# Format: functional
# assay.conditions: subsp. subtilis str. 168

Record excerpt, results attached:
INSERT INTO assay_data (molecule, recorded_measurement) VALUES
  ('Cl.N=C(N)N/N=C/c1ccc(-c2ccc(/C=N/Nc3ccccc3Br)cc2)cc1', '> 500 µM'),
  ('C/C(=N\NC(=N)N)c1ccc(-c2ccc(/C(C)=N/Nc3ccccc3Cl)cc2)cc1', '62.5 to 125 µM'),
  ('Cl.N=C(N)N/N=C/c1ccc(-c2ccc(/C=N/Nc3ccc(Cl)cc3)cc2)cc1', '> 500 µM'),
  ('CC1COc2c(N3CCN(C)CC3)c(F)cc3c(=O)c(C(=O)O)cn1c23 (centres undefined)', '≤ 0.5 µM'),
  ('C/C(=N\NC(=N)N)c1ccc(Cc2ccc(/C(C)=N/NC(=N)N)cc2)cc1.Cl.Cl', '> 500 µM'),
  ('C/C(=N\NC(=N)N)c1ccc(CCc2ccc(/C(C)=N/NC(=N)N)cc2)cc1.Cl.Cl', '> 500 µM'),
  ('Cl.N=C(N)N/N=C/c1ccc(-c2ccc(/C=N/Nc3ccc(F)cc3F)cc2)cc1', '> 500 µM'),
  ('C/C(=N\NC(=N)N)c1ccc(Oc2ccc(/C(C)=N/NC(=N)N)cc2)cc1.Cl.Cl', '125 µM');

Enter reported MIC observed with Bacillus subtilis for Cl.N=C(N)N/N=C/c1ccc(-c2ccc(/C=N/Nc3ccccc3Cl)cc2)cc1 > 500 µM

Entry C/C(=N\NC(=N)N)c1ccc(/C(C)=N/NC(=N)N)cc1 , system Bacillus subtilis: what MIC was measured? 250 µM

Query for Bacillus subtilis: what MIC does the record show for C/C(=N\NC(=N)N)c1cccc(/C(C)=N/NC(=N)N)c1.Cl.Cl ? 250 µM

For Bacillus subtilis, provide MIC of CC1(C)S[C@@H]2[C@H](NC(=O)[C@H](N)c3ccccc3)C(=O)N2[C@H]1C(=O)O please. > 250 µM

---

# Test system: Enterobacter cloacae
# experiment.notes: Antibacterial activity against Enterobacter cloacae ATCC 13047
# Type: functional
# assay.conditions: subsp. cloacae ATCC 13047
Reported MIC values for the following compounds.

Solved cases (3 shown):
INSERT INTO results (compound, attribute_measured, recorded_measurement) VALUES
  ('NCC[C@H](O)C(=O)N[C@@H]1C[C@H](N)[C@@H](O[C@H]2O[C@H](CN)[C@@H](O)[C@H](O)[C@H]2O)[C@H](O)[C@H]1O[C@H]1O[C@H](CO)[C@@H](O)[C@H](N)[C@H]1O [AMIKACIN]', 'MIC', '62.5 µM'),
  ('Cl.N=C(N)N/N=C/c1ccc(-c2ccc(/C=N/Nc3ccccc3Br)cc2)cc1', 'MIC', '> 500 µM'),
  ('Cl.N=C(N)N/N=C/c1ccc(-c2ccc(/C=N/Nc3ccccc3Cl)cc2)cc1', 'MIC', '> 500 µM');

Quick check: MIC on Enterobacter cloacae, item Cl.Cl.N=C(N)N/N=C/c1ccc(-c2ccc(/C=N/NC(=N)N)cc2)cc1 ? > 500 µM

Identify the measured MIC of N=C(N)N/N=C/c1ccc(-c2ccc(/C=N/Nc3ccc(Cl)cc3Cl)cc2)cc1 for Enterobacter cloacae. > 500 µM

Fill in the recorded MIC for this compound, with Enterobacter cloacae as test system: C/C(=N\NC(=N)N)c1cccc(/C(C)=N/NC(=N)N)c1.Cl.Cl > 500 µM

Notebook: pull reported MIC for Enterobacter cloacae, entry C/C(=N\NC(=N)N)c1ccc(-c2ccc(/C(C)=N/NC(=N)N)cc2)cc1.Cl.Cl 125 µM

Request - read-out MIC | tested on Enterobacter cloacae | compound C/C(=N\NC(=N)N)c1ccc(Cc2ccc(/C(C)=N/NC(=N)N)cc2)cc1.Cl.Cl > 500 µM
